All figures here come from ChEMBL document CHEMBL1127704.

- experimental.target: Bifunctional dihydrofolate reductase-thymidylate synthase (Toxoplasma gondii, UniProt Q07422)
- Sequence (Q07422 whole entry): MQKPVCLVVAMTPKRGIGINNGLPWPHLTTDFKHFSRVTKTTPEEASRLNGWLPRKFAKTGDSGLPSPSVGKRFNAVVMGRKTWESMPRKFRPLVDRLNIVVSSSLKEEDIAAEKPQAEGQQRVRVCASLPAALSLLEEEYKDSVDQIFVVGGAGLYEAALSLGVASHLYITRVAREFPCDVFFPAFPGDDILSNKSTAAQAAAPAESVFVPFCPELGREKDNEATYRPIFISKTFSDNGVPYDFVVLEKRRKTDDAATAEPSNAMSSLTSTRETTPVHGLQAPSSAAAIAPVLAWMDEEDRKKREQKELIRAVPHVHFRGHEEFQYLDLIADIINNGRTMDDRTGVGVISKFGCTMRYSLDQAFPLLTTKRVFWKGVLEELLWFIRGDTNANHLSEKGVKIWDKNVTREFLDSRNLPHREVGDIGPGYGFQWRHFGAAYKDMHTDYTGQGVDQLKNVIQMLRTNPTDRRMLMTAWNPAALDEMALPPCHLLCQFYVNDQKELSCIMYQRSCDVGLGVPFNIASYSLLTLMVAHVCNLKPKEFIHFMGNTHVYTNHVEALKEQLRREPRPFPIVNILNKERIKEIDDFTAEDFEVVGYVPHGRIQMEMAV
pIC50: −log10 of the molar value.
Catalogue of pIC50 readings, one per entry.
result.type: pIC50

                                   compound  result_type  readout_number
0  COc1cc(CNc2ccc3nc(N)nc(N)c3c2Cl)cc(OC)c1OC        pIC50            8.15
1  COc1ccc(OC)c(CCNc2ccc3nc(N)nc(N)c3c2Cl)c1        pIC50            6.00
2  COc1ccc(OC)c(CNc2ccc3nc(N)nc(N)c3c2Cl)c1        pIC50            7.77
3  COc1cc(CCCNc2ccc3nc(N)nc(N)c3c2Cl)cc(OC)c1OC        pIC50            4.85
4  COc1cc(NCc2ccc3nc(N)nc(N)c3c2Cl)cc(OC)c1OC        pIC50            8.28
5  COc1cc(N(C)Cc2ccc3nc(N)nc(N)c3c2Cl)cc(OC)c1OC        pIC50            8.19
6  COc1ccc(OC)c(CCCNc2ccc3nc(N)nc(N)c3c2Cl)c1        pIC50            6.00
7  COc1ccc(OC)c(NCc2ccc3nc(N)nc(N)c3c2Cl)c1        pIC50            7.52
